- tested_on: Gag-Pol polyprotein (Human immunodeficiency virus type 1 group M subtype B (isolate HXB2))
- assay_summary: HIV-1 RT RNase H inhibitors, primary screen, biochemical, fluorescence (AID 565)
- condition_label: RT-RNase H RNA/DNA duplex cleavage, at 10 µM, active compounds read high
Hit rate of the full screen: of about 65,000 compounds, about 1,200 (1.8%) were called active. The sample as a whole holds a higher share of actives than the screen did.
For each record, write down the corresponding inhibition.
Quick reminder: number only, in %, skip the unit.

Req: Assign inhibition to the following record: `Clc1ccc(Cc2nn3c(-c4ccncc4)nnc3s2)cc1`
Resp: 53.8

Req: Assign inhibition to the following record: COC(=O)C1=C(C)NC2=C(C(=O)c3ccccc32)C1c1ccc(-c2ccc(C(=O)O)cc2)o1 (stereo unspecified)
Resp: 81.9

Req: Assign inhibition to the following record: `CCN(C(=O)CSc1ncn[nH]1)c1cccc2ccccc12`
Resp: -10.7

Req: Assign inhibition to the following record: COc1ccccc1NC(=O)C1=C(C)NC2=C(C(=O)CCC2)C1c1ccc(C)o1 (stereo unspecified)
Resp: -19.4

Req: Assign inhibition to the following record: `CSc1ccc(-c2c(C#N)c(N)nc3c2c(C)nn3-c2ccccc2)cc1`
Resp: -4.17

Req: Assign inhibition to the following record: `CC(C)(C)c1ccc(C(=O)CSc2ncn[nH]2)cc1`
Resp: 82.3

Req: Assign inhibition to the following record: CC12CCC(C(=O)N(CCC#N)CCC#N)(CC1=O)C2(C)C (stereo unspecified)
Resp: -5.03

Req: Assign inhibition to the following record: `CCc1ccc2oc(-c3ccc(N)cc3)nc2c1`
Resp: -12.6

Req: Assign inhibition to the following record: `Cc1cc(C)c2c(n1)nn1c(-n3ccnc3)cc(C)nc21`
Resp: -11.4

Req: Assign inhibition to the following record: `CCc1c(C)[nH]c(=S)c(C#N)c1C`
Resp: 84.3

Req: Assign inhibition to the following record: `CC(=O)N1CCN(c2ccc(NCc3ccc(C(C)C)cc3)cc2)CC1`
Resp: -16.6
